ASSAY SYSTEM: DYRK1A (Homo sapiens, UniProt Q13627)
Construct: made in house
TEST DESCRIPTION: Kinase inhibition test (DNA-tagged kinase, affinity resin, qPCR readout)
Assay type: binding
Parameters: key: (−) indicates no effect; (+) indicates weak inhibitory activity; (++) indicates a moderate level of inhibitory activity; (+++) indicates strong inhibitory activity
EXPERIMENTAL CONDITIONS: 1 μM of compound
QUANTITY MEASURED: DYRK1A inhibitory activity

N#Cc1cn([C@@H]2S[C@H](CN=[N+]=[N-])[C@@H](O)[C@H]2O)c2ncnc(N)c12 = +++
Nc1ncnc2c1c(-c1cccs1)cn2[C@@H]1SC[C@@H](O)[C@H]1O [Compound 13c] = ++
C#Cc1cn([C@@H]2S[C@H](CNC(=O)c3ccc(OC)cc3)[C@@H](O)[C@H]2O)c2ncnc(N)c12 = +++
C#Cc1cn([C@@H]2S[C@H](COC(=O)c3ccccc3)[C@@H](O)[C@H]2O)c2ncnc(N)c12 = ++
NC(=O)c1cn([C@@H]2S[C@H](CO)[C@@H](O)[C@H]2O)c2ncnc(N)c12 = +++
N#Cc1cn([C@@H]2S[C@H](CNC(=O)c3ccccc3)[C@@H](O)[C@H]2O)c2ncnc(N)c12 = ++
C#Cc1cn([C@@H]2S[C@H](COC(=O)c3ccncc3)[C@@H](O)[C@H]2O)c2ncnc(N)c12 = ++
Nc1ncnc2c1c(C#CC1CC1)cn2[C@@H]1S[C@H](CO)[C@@H](O)[C@H]1O = −
N#Cc1cn([C@@H]2S[C@H](CO)[C@@H](O)[C@H]2O)c2ncnc(N)c12 = +++
C#Cc1cn([C@@H]2SC[C@@H](O)[C@H]2O)c2ncnc(N)c12 [Compound 13a] = ++

Please report the recorded DYRK1A inhibitory activity for C#Cc1cn([C@@H]2S[C@H](CNCC)[C@@H](O)[C@H]2O)c2ncnc(N)c12 [Compound 11b] .
++

Please report the recorded DYRK1A inhibitory activity for C=Cc1cn([C@@H]2SC[C@@H](O)[C@H]2O)c2ncnc(N)c12 [Compound 13e] .
++
